subject.of.test: Kir6.1/SUR2B (Homo sapiens, UniProt O60706+Q15842)
Construct: gene KCNJ8; full-length human subunits co-expressed stably in HEK293 cells; GenScript vectors; four Kir6.1 plus four SUR2B
Sequence (Q15842 whole entry): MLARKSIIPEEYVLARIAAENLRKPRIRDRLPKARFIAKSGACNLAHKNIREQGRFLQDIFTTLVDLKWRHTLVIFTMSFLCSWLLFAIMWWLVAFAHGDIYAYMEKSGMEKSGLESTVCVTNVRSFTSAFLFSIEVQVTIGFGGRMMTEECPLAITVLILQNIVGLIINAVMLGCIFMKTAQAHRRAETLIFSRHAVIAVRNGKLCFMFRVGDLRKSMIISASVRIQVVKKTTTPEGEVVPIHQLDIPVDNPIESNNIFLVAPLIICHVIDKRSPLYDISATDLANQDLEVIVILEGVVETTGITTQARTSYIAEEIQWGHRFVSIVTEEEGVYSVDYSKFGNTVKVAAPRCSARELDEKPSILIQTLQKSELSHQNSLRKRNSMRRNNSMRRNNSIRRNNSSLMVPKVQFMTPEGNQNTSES
Sequence (O60706 1-1549 isoform O60706-2): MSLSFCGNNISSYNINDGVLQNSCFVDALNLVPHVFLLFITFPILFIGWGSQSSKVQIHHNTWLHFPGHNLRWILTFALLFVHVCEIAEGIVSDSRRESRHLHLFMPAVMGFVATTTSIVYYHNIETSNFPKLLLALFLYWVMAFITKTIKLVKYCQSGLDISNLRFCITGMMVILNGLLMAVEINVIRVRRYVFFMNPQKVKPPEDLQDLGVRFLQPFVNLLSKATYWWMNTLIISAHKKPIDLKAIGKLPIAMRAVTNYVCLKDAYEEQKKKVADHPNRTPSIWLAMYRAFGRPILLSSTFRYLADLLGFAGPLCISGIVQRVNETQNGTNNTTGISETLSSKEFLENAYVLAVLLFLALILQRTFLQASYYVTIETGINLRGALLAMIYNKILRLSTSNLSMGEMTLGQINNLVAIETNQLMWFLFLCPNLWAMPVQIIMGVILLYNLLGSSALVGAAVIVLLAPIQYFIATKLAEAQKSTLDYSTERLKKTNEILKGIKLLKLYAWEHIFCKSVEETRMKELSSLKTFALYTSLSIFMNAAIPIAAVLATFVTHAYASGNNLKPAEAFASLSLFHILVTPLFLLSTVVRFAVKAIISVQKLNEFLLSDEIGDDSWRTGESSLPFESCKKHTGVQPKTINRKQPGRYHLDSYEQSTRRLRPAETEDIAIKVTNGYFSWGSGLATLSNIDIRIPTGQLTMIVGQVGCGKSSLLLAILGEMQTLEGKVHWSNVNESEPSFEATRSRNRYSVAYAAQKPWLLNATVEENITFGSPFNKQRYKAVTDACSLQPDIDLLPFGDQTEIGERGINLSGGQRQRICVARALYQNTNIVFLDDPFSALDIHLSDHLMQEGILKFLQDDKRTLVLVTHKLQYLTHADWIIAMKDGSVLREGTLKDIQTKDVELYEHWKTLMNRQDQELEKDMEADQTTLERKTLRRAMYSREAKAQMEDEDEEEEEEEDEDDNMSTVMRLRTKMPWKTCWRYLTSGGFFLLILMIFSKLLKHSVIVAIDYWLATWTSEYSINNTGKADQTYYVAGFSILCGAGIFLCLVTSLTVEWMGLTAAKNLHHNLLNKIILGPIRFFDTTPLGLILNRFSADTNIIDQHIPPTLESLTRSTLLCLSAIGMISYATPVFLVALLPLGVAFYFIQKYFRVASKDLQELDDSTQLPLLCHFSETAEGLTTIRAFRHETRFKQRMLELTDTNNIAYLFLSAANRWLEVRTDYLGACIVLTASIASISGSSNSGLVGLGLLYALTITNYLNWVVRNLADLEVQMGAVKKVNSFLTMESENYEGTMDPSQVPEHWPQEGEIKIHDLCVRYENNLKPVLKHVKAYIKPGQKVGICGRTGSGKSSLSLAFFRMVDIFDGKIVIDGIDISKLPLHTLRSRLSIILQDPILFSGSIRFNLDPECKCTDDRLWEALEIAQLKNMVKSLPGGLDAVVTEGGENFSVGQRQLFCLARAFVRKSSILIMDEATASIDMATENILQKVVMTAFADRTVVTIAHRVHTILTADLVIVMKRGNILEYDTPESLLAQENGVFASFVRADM
protocol.notes: thallium-flux fluorescence assay (FLIPR, BTC/AM)
Assay type: cell-based
pIC50: −log10 of the molar value.
Class TRUE: pIC50 at least 5. Class FALSE: pIC50 below 5.

Examples from the recorded data:
>  <compound>
COc1ccc(Cl)cc1C(=O)NCCc1ccc(S(=O)(=O)NC(=O)NC2CCCCC2)cc1 [Glibenclamide]

>  <class.label>
TRUE

$$$$
>  <compound>
C1CCC(/N=C(\NC23CC4CC(CC(C4)C2)C3)N2CCOCC2)CC1 [PNU-37883A]

>  <class.label>
TRUE

$$$$
>  <compound>
COc1ccc2c(c1)C(=O)N(CCc1ccc(S(=O)(=O)NC(=O)NC3CCCCC3)cc1)C(=O)C2(C)C

>  <class.label>
TRUE

$$$$
>  <compound>
CCCCNC(=O)NS(=O)(=O)c1ccc(C)cc1 [Tolbutamide]

>  <class.label>
FALSE

$$$$
>  <compound>
CCOc1cc(CC(=O)N[C@@H](CC(C)C)c2ccccc2N2CCCCC2)ccc1C(=O)O [Repaglinide]

>  <class.label>
TRUE

$$$$
>  <compound>
CC(C)[C@H]1CC[C@H](C(=O)N[C@H](Cc2ccccc2)C(=O)O)CC1 [Nateglinide]

>  <class.label>
FALSE

$$$$
>  <compound>
CCC1=C(C)CN(C(=O)NCCc2ccc(S(=O)(=O)NC(=O)N[C@H]3CC[C@H](C)CC3)cc2)C1=O [Glimepiride]

>  <class.label>
TRUE

$$$$

Request: hey, is pIC50 for this one >= 5? Cc1ccc(S(=O)(=O)NC(=O)NN2CC3CCCC3C2)cc1 (stereo not shown) [Gliclazide]
Response: FALSE
